- Tested Target: human noradrenaline transporter (hNET) (Homo sapiens, UniProt P23975)
- Construct: expressed in transfected cells
- Sequence (P23975 whole entry): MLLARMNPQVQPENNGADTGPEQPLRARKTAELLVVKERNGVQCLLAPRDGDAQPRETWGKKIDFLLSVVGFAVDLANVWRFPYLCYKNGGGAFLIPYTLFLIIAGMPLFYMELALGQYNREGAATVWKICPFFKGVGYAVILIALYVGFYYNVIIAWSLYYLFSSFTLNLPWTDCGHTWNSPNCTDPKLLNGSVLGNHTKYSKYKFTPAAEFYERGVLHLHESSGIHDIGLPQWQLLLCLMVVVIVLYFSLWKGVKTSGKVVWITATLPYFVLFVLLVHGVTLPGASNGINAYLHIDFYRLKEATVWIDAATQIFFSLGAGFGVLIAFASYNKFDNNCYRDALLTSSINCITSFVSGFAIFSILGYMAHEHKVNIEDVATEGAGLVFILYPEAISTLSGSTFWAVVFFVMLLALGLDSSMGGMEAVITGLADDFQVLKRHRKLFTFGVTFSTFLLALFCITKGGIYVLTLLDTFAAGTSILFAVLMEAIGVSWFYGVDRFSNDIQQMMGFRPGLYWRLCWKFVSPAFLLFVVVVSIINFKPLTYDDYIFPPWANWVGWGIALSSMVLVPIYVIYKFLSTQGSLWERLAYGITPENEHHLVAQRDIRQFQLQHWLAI
- Procedure Summary: Assay of monoamine uptake: inhibition of noradrenaline uptake
- Assay type: cell-based
- Assay Conditions: inhibition of noradrenaline uptake, Madin Darby Canine Kidney Cells (MDCK) expressing hNET, 20 nM neurotransmitter ([3H]-labelled and non-labelled), 37°C; read-out: hNET
pEC50: −log10 of the molar value.
Assay Endpoint: pEC50

Some solved cases for reference:
FC(F)(F)c1ccccc1-c1cccc(OC2CC3CCC(C2)N3)c1 (stereo not drawn) [IV.8] : > 7.00
N#Cc1ccc(-c2cc(C#N)cc(OC3CC4CCC(C3)N4)c2)cc1 (stereo not drawn) [VI.8] : < 6.00
COc1cc(Oc2ccccc2)cc(OC2CC3CCC(C2)N3)c1F (stereo not drawn) [IV.9] : > 7.00
FC(F)(F)c1ccc(OC2CC3CCC(C2)N3)cc1-c1ccccc1 (stereo not drawn) [VI.3] : < 6.00
Clc1cc(Oc2ccccc2)cc(O[C@@H]2C[C@H]3CC[C@@H](C2)N3)c1 [IV.19] : > 7.00

Now take the following compound into account.
Test item N#Cc1ccc(-c2cc(C#N)cc(OC3CC4CCC(C3)N4)c2)nc1 (stereo not drawn) [Example IX.3] ; human noradrenaline transporter (hNET) (Homo sapiens, UniProt P23975); reported pEC50 was < 6.00
